pIC50: −log10 of the molar value.
reported metric: pIC50

Prompt line: Answer with pIC50 of [Cl][Ru][Cl].c1ccc(-c2ccccn2)nc1.c1ccc(-c2ccccn2)nc1 [Compound 2, Ru(2,2´-bipyridine)2(Cl)2] measured for UniProt C3W5S0.
Response line: < 4.00
